I'd be grateful if you could share measured inhibition at 25 µM for these entries.
# STUDY_SYSTEM: Leishmania Ddi1 (Leishmania major, UniProt I7HUG0)
# Sequence (I7HUG0 148-390): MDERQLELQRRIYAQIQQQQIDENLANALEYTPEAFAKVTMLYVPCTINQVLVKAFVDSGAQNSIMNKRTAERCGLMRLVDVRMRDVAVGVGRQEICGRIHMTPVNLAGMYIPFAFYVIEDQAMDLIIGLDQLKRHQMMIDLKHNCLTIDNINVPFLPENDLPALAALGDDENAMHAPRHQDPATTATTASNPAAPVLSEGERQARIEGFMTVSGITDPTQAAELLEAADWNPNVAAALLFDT
# ASSAY_EXPLANATION: Proteinase inhibitor assay
# Format: cell-based, L. major
# DETAILS: read-out: Y16141 Leishmania, Inhibition at 25 μM (%)
Answers are plain numbers, in %.

Answered cases to consult:
Cc1cccc(C)c1OCC(=O)N[C@@H](Cc1ccccc1)[C@@H](O)C[C@H](Cc1ccccc1)NC(=O)[C@H](C(C)C)N1CCCNC1=O [Lopinavir] : 38
Cc1c(O)cccc1C(=O)N[C@@H](CSc1ccccc1)[C@H](O)CN1C[C@H]2CCCC[C@H]2C[C@H]1C(=O)NC(C)(C)C [Nelfinavir] : 100

Next up:
The recorded inhibition at 25 µM for entry CC(C)CN(C[C@@H](O)[C@H](Cc1ccccc1)NC(=O)O[C@H]1CCOC1)S(=O)(=O)c1ccc(N)cc1 [Amprenavir] equals 100

###

# STUDY_SYSTEM: Leishmania Ddi1 (Leishmania major, UniProt I7HUG0)
# ASSAY_EXPLANATION: Proteinase inhibitor assay
# Type: cell-based, L. major
# DETAILS: read-out: Y16141 Leishmania, Inhibition at 25 μM (%)
METRIC: inhibition at 25 µM (%)
Give bare numbers, in %.

CC(C)(C)NC(=O)[C@@H]1CN(Cc2cccnc2)CCN1C[C@@H](O)C[C@@H](Cc1ccccc1)C(=O)N[C@H]1c2ccccc2C[C@H]1O : 100
CC(C)(C)NC(=O)[C@@H]1C[C@@H]2CCCC[C@@H]2CN1C[C@@H](O)[C@H](Cc1ccccc1)NC(=O)[C@H](CC(N)=O)NC(=O)c1ccc2ccccc2n1 : 100
CC(C)c1nc(CN(C)C(=O)N[C@H](C(=O)N[C@@H](Cc2ccccc2)C[C@H](O)[C@H](Cc2ccccc2)NC(=O)OCc2cncs2)C(C)C)cs1 : 22

Okay, now this compound:
The compound listed as "CCC[C@@]1(CCc2ccccc2)CC(O)=C([C@H](CC)c2cccc(NS(=O)(=O)c3ccc(C(F)(F)F)cn3)c2)C(=O)O1" shows inhibition at 25 µM equal to 97

###

# STUDY_SYSTEM: human Ddi1 (Homo sapiens, UniProt Q8WTU0)
# Sequence (Q8WTU0 whole entry): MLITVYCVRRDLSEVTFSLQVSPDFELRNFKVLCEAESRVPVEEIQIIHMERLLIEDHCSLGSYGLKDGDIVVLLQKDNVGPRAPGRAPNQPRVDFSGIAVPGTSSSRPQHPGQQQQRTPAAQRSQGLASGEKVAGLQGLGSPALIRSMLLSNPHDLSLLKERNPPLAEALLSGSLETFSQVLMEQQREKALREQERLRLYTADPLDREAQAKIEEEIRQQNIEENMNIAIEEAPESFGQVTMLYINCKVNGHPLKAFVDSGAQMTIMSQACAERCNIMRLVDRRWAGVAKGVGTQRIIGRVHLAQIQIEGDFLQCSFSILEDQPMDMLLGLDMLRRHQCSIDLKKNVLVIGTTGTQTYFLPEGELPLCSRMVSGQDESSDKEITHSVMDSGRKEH
# ASSAY_EXPLANATION: Proteinase inhibitor assay
# Assay type: cell-based
# DETAILS: read-out: Y16141 human, Inhibition at 25 μM (%)
METRIC: inhibition at 25 µM

CC(C)(C)NC(=O)[C@@H]1CN(Cc2cccnc2)CCN1C[C@@H](O)C[C@@H](Cc1ccccc1)C(=O)N[C@H]1c2ccccc2C[C@H]1O : 38%
CC(C)(C)NC(=O)[C@@H]1C[C@@H]2CCCC[C@@H]2CN1C[C@@H](O)[C@H](Cc1ccccc1)NC(=O)[C@H](CC(N)=O)NC(=O)c1ccc2ccccc2n1 : 18%

From here, focus on the item given below.
get_value(item= "Cc1c(O)cccc1C(=O)N[C@@H](CSc1ccccc1)[C@H](O)CN1C[C@H]2CCCC[C@H]2C[C@H]1C(=O)NC(C)(C)C" , readout=inhibition at 25 µM) returns 97%
